Biological target: L-type calcium channel, dihydropyridine site (Homo sapiens, UniProt O60840+Q01668+Q13698+Q13936)
Test: Inhibitory activity at dihydropyridine site of Calcium channel L type at 10 uM
Type: protein assay
observed property: inhibition at 10 µM (%)
Kindly provide the numeric value in % only, without the unit symbol.

Ask | Form field: reported inhibition at 10 µM of `C[C@H](N)Cn1ncc2ccc(O)cc21`
Reply | 15.2

====

Target: L-type calcium channel, dihydropyridine site (Homo sapiens, UniProt O60840+Q01668+Q13698+Q13936)
Assay: Inhibitory activity at dihydropyridine site of Calcium channel L type at 100 nM
Assay type: protein assay
observed property: inhibition at 0.1 µM

Ask | Can you look up the measured inhibition at 0.1 µM of `C[C@H](N)Cn1ncc2ccc(O)cc21` for me?
Reply | 12%

Where do the numbers come from? From ChEMBL document CHEMBL1148572.
